Assay: clinical
Conditions: human, in vivo, 24 mg/m2, T ½
test_readout: half-life (h)
State the answer as a number, implicitly in h.

half-life for CN[C@H]1CN(c2ccc3c(=O)c(C(=O)O)cn(-c4nccs4)c3n2)C[C@@H]1OC [SNS-595] is 24.2

###

Test: clinical
Settings: human, in vivo, 15 mg/m2, Cmax
test_readout: Cmax
Answer by giving the amount and then stating its unit.

For CN[C@H]1CN(c2ccc3c(=O)c(C(=O)O)cn(-c4nccs4)c3n2)C[C@@H]1OC [SNS-595] the compound record lists Cmax as 865 ng/mL

###

Experiment: clinical
Details: human, in vivo, 15 mg/m2, AUCinf
test_readout: AUC(0-inf) (µg·h/mL)
Answer in µg·h/mL, number only, no unit symbol.

# AUC(0-inf) (compound: CN[C@H]1CN(c2ccc3c(=O)c(C(=O)O)cn(-c4nccs4)c3n2)C[C@@H]1OC ) is 10.8
